- System: HeLa Kyoto
- test_name: solubility in G1/S (NP-40 vs SDS abundance) (log2 ratio); higher = more soluble
- condition_parameters: cell cycle stage: G1/S
Outcome label depends on solubility in G1/S (log2) relative to 0.08: at/above gives label 1, below gives label 0.

Ask | Evaluate MAWWKAWIEQEGVTVKSSSHFNPDPDAETLYKAMKGIGTNEQAIIDVLTKRSNTQRQQIAKSFKAQFGKDLTETLKSELSGKFERLIVALMYPPYRYEAKELHDAMKGLGTKEGVIIEILASRTKNQLREIMKAYEEDYGSSLEEDIQADTSGYLERILVCLLQGSRDDVSSFVDPALALQDAQDLYAAGEKIRGTDEMKFITILCTRSATHLLRVFEEYEKIANKSIEDSIKSETHGSLEEAMLTVVKCTQNLHSYFAERLYYAMKGAGTRDGTLIRNIVSRSEIDLNLIKCHFKKMYGKTLSSMIMEDTSGDYKNALLSLVGSDP [ANXA8L1] : solubility in G1/S (log2) at minimum 0.08?
Reply | label 1

Ask | Evaluate METMRAQRLQPGVGTSGRGTLRALRPGVTGAAAATATPPAGPPPAPPPPAPPPPPLLLSGAPGLPLPPGAAGSPAVLREAVEAVVRSFAKHTQGYGRVNVVEALQEFWQMKQSRGADLKNGALVVYEMVPSNSPPYVCYVTLPGGSCFGSFQFCPTKAEARRSAAKIALMNSVFNEHPSRRITDEFIEKSVSEALASFNGNREEADNPNTGIGAFRFMLESNKGKSMLEFQELMTVFQLLHWNGSLKAMRERQCSRQEVLAHYSHRALDDDIRHQMALDWVSREQSVPGALSRELASTERELDEARLAGKELRFHKEKKDILVLAAGQLGNMHSSNC [LIX1L] : solubility in G1/S (log2) at minimum 0.08?
Reply | label 1

Ask | Evaluate MADEELEALRRQRLAELQAKHGDPGDAAQQEAKHREAEMRNSILAQVLDQSARARLSNLALVKPEKTKAVENYLIQMARYGQLSEKVSEQGLIEILKKVSQQTEKTTTVKFNRRKVMDSDEDDDY [PDCD5] : solubility in G1/S (log2) at minimum 0.08?
Reply | label 0

----------
- Test system: HeLa Kyoto
- test_name: melting temperature (median over replicates), in situ; higher = more thermally stable
- condition_parameters: cell cycle stage: mitosis
// reported melting temperature per item
Provide only the numeric value, understood in °C.

Reference set (5 entries):
| item_sequence | unit_text | melting temperature |
| --- | --- | --- |
| MLALISRLLDWFRSLFWKEEMELTLVGLQYSGKTTFVNVIASGQFSEDMIPTVGFNMRKVTKGNVTIKIWDIGGQPRFRSMWERYCRGVNAIVYMIDAADREKIEASRNELHNLLDKPQLQGIPVLVLGNKRDLPNALDEKQLIEKMNLSAIQDREICCYSISCKEKDNIDITLQWLIQHSKSRRS [ARL8B] | °C | 56 |
| MVLESTMVCVDNSEYMRNGDFLPTRLQAQQDAVNIVCHSKTRSNPENNVGLITLANDCEVLTTLTPDTGRILSKLHTVQPKGKITFCTGIRVAHLALKHRQGKNHKMRIIAFVGSPVEDNEKDLVKLAKRLKKEKVNVDIINFGEEEVNTEKLTAFVNTLNGKDGTGSHLVTVPPGPSLADALISSPILAGEGGAMLGLGASDFEFGVDPSADPELALALRVSMEEQRQRQEEEARRAAAASAAEAGIATTGTEDSDDALLKMTISQQEFGRTGLPDLSSMTEEEQIAYAMQMSLQGAEFGQAESADIDASSAMDTSEPAKEEDDYDVMQDPEFLQSVLENLPGVDPNNEAIRNAMGSLASQATKDGKKDKKEEDKK [PSMD4] | °C | 53.9 |
| MATDELATKLSRRLQMEGEGGGETPEQPGLNGAAAAAAGAPDEAAEALGSADCELSAKLLRRADLNQGIGEPQSPSRRVFNPYTEFKEFSRKQIKDMEKMFKQYDAGRDGFIDLMELKLMMEKLGAPQTHLGLKNMIKEVDEDFDSKLSFREFLLIFRKAAAGELQEDSGLCVLARLSEIDVSSEGVKGAKSFFEAKVQAINVSSRFEEEIKAEQEERKKQAEEMKQRKAAFKELQSTFK [EFHD2] | °C | 53.7 |
| MAVPAAAMGPSALGQSGPGSMAPWCSVSSGPSRYVLGMQELFRGHSKTREFLAHSAKVHSVAWSCDGRRLASGSFDKTASVFLLEKDRLVKENNYRGHGDSVDQLCWHPSNPDLFVTASGDKTIRIWDVRTTKCIATVNTKGENINICWSPDGQTIAVGNKDDVVTFIDAKTHRSKAEEQFKFEVNEISWNNDNNMFFLTNGNGCINILSYPELKPVQSINAHPSNCICIKFDPMGKYFATGSADALVSLWDVDELVCVRCFSRLDWPVRTLSFSHDGKMLASASEDHFIDIAEVETGDKLWEVQCESPTFTVAWHPKRPLLAFACDDKDGKYDSSREAGTVKLFGLPNDS [THOC3] | °C | 51.9 |
| MADYWKSQPKKFCDYCKCWIADNRPSVEFHERGKNHKENVAKRISEIKQKSLDKAKEEEKASKEFAAMEAAALKAYQEDLKRLGLESEILEPSITPVTSTIPPTSTSNQQKEKKEKKKRKKDPSKGRWVEGITSEGYHYYYDLISGASQWEKPEGFQGDLKKTAVKTVWVEGLSEDGFTYYYNTETGESRWEKPDDFIPHTSDLPSSKVNENSLGTLDESKSSDSHSDSDGEQEAEEGGVSTETEKPKIKFKEKNKNSDGGSDPETQKEKSIQKQNSLGSNEEKSKTLKKSNPYGEWQEIKQEVESHEEVDLELPSTENEYVSTSEADGGGEPKVVFKEKTVTSLGVMADGVAPVFKKRRTENGKSRNLRQRGDDQ [WBP4] | °C | 54.7 |

According to the records, this sequence MESGFTSKDTYLSHFNPRDYLEKYYKFGSRHSAESQILKHLLKNLFKIFCLDGVKGDLLIDIGSGPTIYQLLSACESFKEIVVTDYSDQNLQELEKWLKKEPEAFDWSPVVTYVCDLEGNRVKGPEKEEKLRQAVKQVLKCDVTQSQPLGAVPLPPADCVLSTLCLDAACPDLPTYCRALRNLGSLLKPGGFLVIMDALKSSYYMIGEQKFSSLPLGREAVEAAVKEAGYTIEWFEVISQSYSSTMANNEGLFSLVARKLSRPL [NNMT] displays melting temperature of 53.7

According to the records, this sequence MASTGSQASDIDEIFGFFNDGEPPTKKPRKLLPSLKTKKPRELVLVIGTGISAAVAPQVPALKSWKGLIQALLDAAIDFDLLEDEESKKFQKCLHEDKNLVHVAHDLIQKLSPRTSNVRSTFFKDCLYEVFDDLESKMEDSGKQLLQSVLHLMENGALVLTTNFDNLLELYAADQGKQLESLDLTDEKKVLEWAQEKRKLSVLHIHGVYTNPSGIVLHPAGYQNVLRNTEVMREIQKLYENKSFLFLGCGWTVDDTTFQALFLEAVKHKSDLEHFMLVRRGDVDEFKKLRENMLDKGIKVISYGDDYADLPEYFKRLTCEISTRGTSAGMVREGQLNGSSAAHSEIRGCST [FAM118B] displays melting temperature of 50.5

According to the records, this sequence MADSSPALSLREGGPRAPRPSAPSPPPRSRSGSESEEAELSLSLARTKTRSYGSTASVRAPLGAGVIERHVEHRVRAGDTLQGIALKYGVTMEQIKRANKLFTNDCIFLKKTLNIPVISEKPLLFNGLNSIDSPENETADNSFSQEEEPVVAGEDLPPPSPQESDVQPVQPEEVSARDFLQRLDLQIKLSTQAAKKLKEESRDEESPYATSLYHS [LYSMD2] displays melting temperature of 51.8

According to the records, this sequence MEEYHRHCDEVGFNAEEAHNIVKECVDGVLGGEDYNHNNINQWTASIVEQSLTHLVKLGKAYKYIVTCAVVQKSAYGFHTASSCFWDTTSDGTCTVRWENRTMNCIVNVFAIAIVL [DYNLT3] displays melting temperature of 54.1

According to the records, this sequence MPNIVLFSGSSHQDLSQRVADRLGLELGKVVTKKFSNQETSVEIGESVRGEDVYIIQSGCGEINDNLMELLIMINACKIASSSRVTAVIPCFPYARQDKKDKSRAPISAKLVANMLSVAGADHIITMDLHASQIQGFFDIPVDNLYAEPAVLQWIRENIAEWKNCIIVSPDAGGAKRVTSIADRLNVEFALIHKERKKANEVDRMVLVGDVKDRVAILVDDMADTCGTICHAADKLLSAGATKVYAILTHGIFSGPAISRINNAAFEAVVVTNTIPQEDKMKHCTKIQVIDISMILAEAIRRTHNGESVSYLFSHVPL [PRPS2] displays melting temperature of 55.9

----------
- System: HeLa Kyoto
- test_name: thermal stability score vs G1/S (z-score of summed log2 fold changes over temperatures); higher = more thermally stable than in G1/S
- condition_parameters: cell cycle stage: mitosis
// reported thermal stability score per item

| item_sequence | value_type | result_value |
| --- | --- | --- |
| MERAVPLAVPLGQTEVFQALQRLHMTIFSQSVSPCGKFLAAGNNYGQIAIFSLSSALSSEAKEESKKPVVTFQAHDGPVYSMVSTDRHLLSAGDGEVKAWLWAEMLKKGCKELWRRQPPYRTSLEVPEINALLLVPKENSLILAGGDCQLHTMDLETGTFTRVLRGHTDYIHCLALRERSPEVLSGGEDGAVRLWDLRTAKEVQTIEVYKHEECSRPHNGRWIGCLATDSDWMVCGGGPALTLWHLRSSTPTTIFPIRAPQKHVTFYQDLILSAGQGRCVNQWQLSGELKAQVPGSSPGLLSLSLNQQPAAPECKVLTAAGNSCRVDVFTNLGYRAFSLSF [THOC6] | thermal stability score | -0.675 |

Could you now consider this next sequence?
According to the records, this sequence MKPDETPMFDPSLLKEVDWSQNTATFSPAISPTHPGEGLVLRPLCTADLNRGFFKVLGQLTETGVVSPEQFMKSFEHMKKSGDYYVTVVEDVTLGQIVATATLIIEHKFIHSCAKRGRVEDVVVSDECRGKQLGKLLLSTLTLLSKKLNCYKITLECLPQNVGFYKKFGYTVSEENYMCRRFLK [GNPNAT1] displays thermal stability score of -1.14
